All figures here come from patent US20200200749A1.

# target_under_test: T1, SUDV GP (recombinant) (SUDV (Sudan ebolavirus), UniProt Q66814 33-650)
# T1 chain: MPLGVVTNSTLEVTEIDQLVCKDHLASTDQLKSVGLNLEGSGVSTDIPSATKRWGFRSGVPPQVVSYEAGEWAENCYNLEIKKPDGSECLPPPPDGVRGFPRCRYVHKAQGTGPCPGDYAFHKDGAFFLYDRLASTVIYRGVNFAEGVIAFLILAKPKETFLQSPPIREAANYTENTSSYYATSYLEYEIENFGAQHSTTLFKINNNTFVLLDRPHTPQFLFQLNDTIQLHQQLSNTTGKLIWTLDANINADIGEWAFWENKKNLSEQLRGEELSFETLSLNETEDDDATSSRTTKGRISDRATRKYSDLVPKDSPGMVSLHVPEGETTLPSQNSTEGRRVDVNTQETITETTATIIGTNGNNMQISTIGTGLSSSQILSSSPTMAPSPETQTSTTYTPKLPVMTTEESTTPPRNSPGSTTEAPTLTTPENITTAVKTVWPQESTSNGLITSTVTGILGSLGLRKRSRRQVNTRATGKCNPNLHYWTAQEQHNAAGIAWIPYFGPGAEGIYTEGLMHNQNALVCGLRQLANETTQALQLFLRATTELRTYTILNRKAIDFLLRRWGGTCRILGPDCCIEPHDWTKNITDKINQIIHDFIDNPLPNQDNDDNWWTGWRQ
# assay_protocol: ELISA
metric_name: EC50

Report EC50 for EBOV49 (antibody, V domains shown) VH: EVQLVESGGGLVQPGGSLRLSCAASGFTFSSYEINWVRQAPGRGLEWVSYISSSGRTIYYADSVKGRFTISRDNAKNSLYLQMNSLRAEDTAVYYCAREPYVDGILYGAGDSYFDYWGQGTLVTVSS VL: DIQMTQSPSSLSASVGDRVTITCRASQSISNYLNWYQQKPGKAPKVLIYAASSLQSGVSSRFSGSGSGTDFTLTISSLQPEDFATYFCQQSYNTPPVTFGQGTRLEIK please.
> 10 µg/mL
